target: HSPB7ACD (α-crystallin domain, residues 78-162 of isoform 2) (human, UniProt Q9UBY9-2 78-162)
pKd: −log10 of the molar value.

>  <BINDER>
ITIPVTFE [HSPB1 C-terminal peptide (cognate peptide of HSPB1ACD)]

>  <pKd>
3.96

$$$$
>  <BINDER>
TFRTEIKI [HSPB7 C-terminal peptide (residues 168-175, TFRTEIKI)]

>  <pKd>
3.42

$$$$
>  <BINDER>
ERTIPITRE (Limits are not printed. 156-164, containing the IPI motif, is taken by convention from the peptide in the HSPB5 ACD-peptide structure PDB 4M5S; check residues come from the IPI motif, not numbered in the text. Terminal chemistry not stated.) [HSPB5 C-terminal peptide (cognate peptide of HSPB5ACD)]

>  <pKd>
4.15

$$$$
